assay: Tmax in C3H/J mouse plasma at 5 mg/kg, po by LC-MS/MS analysis; assay type: ADME, organism-based
result type: Tmax

**Q:** # input molecule: O=C(O)C1CCN(c2ccc3c(=O)c4cccc(Cl)c4oc3c2)C1 (racemic) ; wanted: its Tmax
**A:** 30 min

###

test: Cytotoxicity against human HepDES19 cells assessed as reduction in cell viability measured after 5 days by CCK-8 assay; type: toxicity, cell-based; details: time 5 day
result type: CC50 at 120 h

chemical smiles	CC50 at 120 h
O=C(Nc1ccc2c(=O)c3cccc(F)c3oc2c1)c1ccccc1F	> 100 µM
O=C(Nc1ccc2c(=O)c3cccc(F)c3oc2c1)c1ccccc1Cl	> 100 µM
O=C(Nc1ccc2c(=O)c3cccc(F)c3oc2c1)c1ccccc1O	35.1 µM
O=C(Nc1ccc2c(=O)c3ccccc3oc2c1)c1ccccc1F	> 50 µM
COc1ccccc1C(=O)Nc1ccc2c(=O)c3cccc(F)c3oc2c1	> 100 µM
Cn1ccnc1C(=O)Nc1ccc2c(=O)c3cccc(F)c3oc2c1	> 50 µM
O=C(Nc1ccc2c(=O)c3cccc(F)c3oc2c1)c1ccccc1	> 100 µM
CN(C(=O)c1ccncc1)c1ccc2c(=O)c3cccc(F)c3oc2c1	> 100 µM
O=C(Nc1ccc2c(=O)c3cccc(F)c3oc2c1)c1ccncc1	> 100 µM
O=C(Nc1ccc2c(=O)c3cccc(F)c3oc2c1)c1ccncc1F	> 100 µM

Please turn your attention to the following entry.
**Q:** Form field: reported CC50 at 120 h of O=C(Nc1ccc2c(=O)c3cccc(Cl)c3oc2c1)c1ccccc1[N+](=O)[O-]
**A:** > 100 µM
